Examples of molecules with documented IC50 follow.
Test system: H9
Assay: Anti-HIV activity was evaluated as the concentration required to inhibit the growth of uninfected H9 lymphocyte cells by 50%
Type: functional, cell-based
Conditions: Homo sapiens

Below, 3 molecules whose answers are already recorded.
[
  {
    "molecule": "CC1(C)Oc2ccc3ccc(=S)oc3c2[C@@H](OC(=O)C23CCC(C)(C(=O)O2)C3(C)C)[C@H]1OC(=O)C12CCC(C)(C(=O)O1)C2(C)C (some centres undefined)",
    "measured_value": "> 156 µM"
  },
  {
    "molecule": "Cc1cc(=S)oc2c3c(ccc12)OC(C)(C)[C@H](OC(=O)C12CCC(C)(C(=O)O1)C2(C)C)[C@@H]3OC(=O)C12CCC(C)(C(=O)O1)C2(C)C (some centres undefined)",
    "measured_value": "> 153 µM"
  },
  {
    "molecule": "CCCc1cc(=S)oc2c3c(ccc12)OC(C)(C)[C@H](OC(=O)C12CCC(C)(C(=O)O1)C2(C)C)[C@@H]3OC(=O)C12CCC(C)(C(=O)O1)C2(C)C (some centres undefined)",
    "measured_value": "> 148 µM"
  }
]

Now let's try a different one.
Measured IC50 of CC1(C)Oc2ccc3c(-c4ccccc4)cc(=S)oc3c2[C@@H](OC(=O)C23CCC(C)(C(=O)O2)C3(C)C)[C@H]1OC(=O)C12CCC(C)(C(=O)O1)C2(C)C (some centres undefined) : > 140 µM
